- TARGET UNDER TEST: Cytochrome P450 2C19 (Homo sapiens)
- ASSAY DETAILS: Cytochrome P450 Family 2 Subfamily C Member 19 (CYP2C19) small molecule antagonists: luciferase reporter qHTS assay (AID 1671197); further: nearly all actives have a fitted effect of over 65% in size
- SETTINGS: P450-Glo CYP2C19 enzyme, luciferin luminescence, 1 h; series mostly up to 115 µM
Results filed as inconclusive are left out. Calls of active or inactive are those of the source. The call rests on the fitted dose curve; in most records, active means well fitted inhibition curve with a large enough effect in the repeat runs; inconclusive means weak or mixed curves; inactive means no such curve, though single readings can be large or run the other way.
Hi there, use one of these labels in your reply, thanks! active, inactive

# example entries with known answers
[[record]]
compound = "CCSCc1ccccc1OC(=O)NC"
label_value = "inactive"

[[record]]
compound = "O=C(NC(=O)c1cc(F)c(F)cc1Cl)Nc1cc(F)ccc1N1CCC(C(=O)O)CC1"
label_value = "inactive"

[[record]]
compound = "CCOP(=S)(S)OCC"
label_value = "active"

[[record]]
compound = "CCOP(=O)(O)C(N)=O"
label_value = "inactive"

[[record]]
compound = "CC(C)CCON=O"
label_value = "inactive"

[[record]]
compound = "NC(=S)c1c(Cl)cccc1Cl"
label_value = "inactive"

[[record]]
compound = "CC(C)(C)N(NC(=O)c1ccc(Cl)cc1)C(=O)c1ccccc1"
label_value = "active"

[[record]]
compound = "Cc1cccc(C)c1NC1=NCCCS1"
label_value = "inactive"

[[record]]
compound = "CC(C)(C)CC(C)(C)c1ccc(O)cc1"
label_value = "inactive"

[[record]]
compound = "CCOc1cccc(C2(N3CCN(c4ccccc4)CC3)CCC(C)CC2)c1 (centres undefined)"
label_value = "inactive"


-- ask For Nc1ccccc1C(=O)OCC(O)CO (centres undefined) , which call appears in the assay record?
-- reply inactive

-- ask So what was the verdict on O=C(Cc1ccccc1)OCCc1ccccc1 in this test?
-- reply active

-- ask Hi, sorry to bother you, what did the test record for CC(Cc1ccccc1)NCc1ccccc1Cl (centres undefined) ?
-- reply active

-- ask Entry O=C(O)COc1cc(Cl)c(Cl)cc1Cl : call = ?
-- reply inactive
